Entry source: patent US10570148B2

Measured Attribute: melting point

Molecule	Assay Result
CN(CCOc1ccccc1C(C)(C)C)C(=O)c1nnc2n1CCOC2 [Compound 25]	116 to 120 °C
CN(CCOc1ccccc1C(C)(C)C)C(=O)C(=O)O [Compound 13]	98 to 101 °C
CN(CCOc1ccccc1C(C)(C)C)C(=O)Nc1ccncc1C(=O)O [Compound 18]	218 to 220 °C

Pending molecule:
Using the record for CN(CCOc1ccc(Cl)cc1C(C)(C)C)C(=O)c1cn2ncccc2n1 [Compound 21] , report its melting point.
73 to 78 °C

###

Each record here notes measured melting point.

Worked set:
Molecule	melting point
CN(CCOc1ccccc1C(C)(C)C)C(=O)c1n[nH]c2ccc(F)cc12 [Compound 22]	186 to 190 °C
CN(CCOc1ccccc1C(C)(C)C)C(=O)c1n[nH]c2c1CN(S(C)(=O)=O)C2 [Compound 28]	125 to 133 °C
CN(CCOc1ccccc1C(C)(C)C)C(=O)c1c[nH]nn1 [Compound 12]	148 to 151 °C

Using the record for CN(CCOc1ccccc1C(C)(C)C)C(=O)c1cn2ncccc2n1 [Compound 23] , report its melting point.
75 to 80 °C

Using the record for CN(CCOc1ccccc1C(C)(C)C)C(=O)c1n[nH]c2c1CCN(S(C)(=O)=O)C2 [Compound 33] , report its melting point.
233 to 237 °C

Using the record for CN1CCc2c(C(=O)N(C)CCOc3ccccc3C(C)(C)C)n[nH]c2C1 [Compound 34] , report its melting point.
159 to 161 °C

Using the record for CN(CCOc1ccccc1C(C)(C)C)C(=O)c1n[nH]c2c1CN(S(C)(=O)=O)CC2 [Compound 30] , report its melting point.
226 to 230 °C

Using the record for CC(C)c1ccccc1OCCN(C)C(=O)Nc1ccccc1C(=O)O [Compound 17] , report its melting point.
146 to 149 °C

Using the record for CN(CCOc1ccccc1C(C)(C)C)C(=O)c1n[nH]c2ncccc12 [Compound 24] , report its melting point.
157 to 159 °C
